- Test system: HEK-293T
- assayComment: Incucyte cell viability with HEK293T; note: unitless GR value; below 1 slowed growth and below 0 cell loss
- Type: toxicity, cell-based
- conditionParameters: human, 18 h, 10 µM, compound concentration 10 uM, replicate number 1
In this section, each of the compounds is paired with its reported Growth Rate.

Example entries begin here.
C=C(C)[C@H]1CN[C@H](C(=O)O)[C@H]1CC(=O)O    0.62
NCC1CCC(CNc2nc(NCc3ccccc3OC(F)(F)F)ncc2[N+](=O)[O-])CC1 (stereo not drawn)    -0.04
O=C(NC[C@@H]1[C@H]2CN(C(=O)OCc3cc(C(F)(F)F)cc(C(F)(F)F)c3)C[C@@H]12)c1ccc2[nH]nnc2c1    0.6
Cn1c(C2(NC(=O)c3ccc4c(C5CCCC5)c(-c5ncc(Br)cn5)n(C)c4c3)CCC2)nc2ccc(/C=C/C(=O)O)cc21    0.92
CN1C(=O)c2ccccc2N(C)c2nc(Nc3cnn(C4CCNCC4)c3)ncc21    0.19

-- ask # return recorded Growth Rate for input "O=C(NCc1ccc(F)cc1)C1CCN(S(=O)(=O)c2cc(Cl)cc(Cl)c2)CC1"
-- reply 0.7

-- ask # return recorded Growth Rate for input "CC[C@H](Nc1c(C#N)c(-c2ccc(-c3cccc(C)c3F)cc2)nc2cnccc12)C(=O)O"
-- reply 0.91

-- ask # return recorded Growth Rate for input "CC(C)(C)S(=O)(=O)c1ccc2nccc(Nc3n[nH]c4ccc(F)cc34)c2c1"
-- reply -0.12
